These measurements were taken from ChEMBL document CHEMBL3352447.

Target: Peroxisome proliferator-activated receptor delta (Homo sapiens, UniProt Q03181)
Sequence (Q03181 whole entry): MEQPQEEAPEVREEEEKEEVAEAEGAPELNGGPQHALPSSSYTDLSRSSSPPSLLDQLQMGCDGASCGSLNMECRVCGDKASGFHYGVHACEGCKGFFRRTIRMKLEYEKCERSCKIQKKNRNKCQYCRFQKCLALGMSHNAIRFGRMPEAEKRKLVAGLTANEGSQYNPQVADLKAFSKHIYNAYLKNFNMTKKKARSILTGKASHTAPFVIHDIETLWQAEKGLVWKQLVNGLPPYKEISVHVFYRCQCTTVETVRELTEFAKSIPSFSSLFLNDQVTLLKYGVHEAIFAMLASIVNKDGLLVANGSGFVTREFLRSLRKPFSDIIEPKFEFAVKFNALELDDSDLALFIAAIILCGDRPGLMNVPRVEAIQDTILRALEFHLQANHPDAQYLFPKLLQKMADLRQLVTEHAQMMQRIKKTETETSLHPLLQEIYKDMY
Experiment: Agonist activity at human GAL4-PPARdelta ligand binding domain expressed in human HepG2 cells by luciferase reporter gene assay
Format: cell-based

molecule	EC50
C/C(=C\C(=O)c1ccccc1)NC(Cc1ccc(OCCOc2ccc(/C=C/c3ccc(Cl)cc3)cc2)cc1)C(=O)O (stereo not drawn)	Not Active
C/C(=C\C(=O)c1ccccc1)NC(Cc1ccc(OCCOc2ccc(/C=C/c3ccccc3)cc2)cc1)C(=O)O (stereo not drawn)	Not Active
C/C(=C\C(=O)c1ccccc1)NC(Cc1ccc(OCCCOc2ccc(/N=N/c3ccccc3)cc2)cc1)C(=O)O (stereo not drawn)	Not Active

----------
Each record here notes measured Emax.
Molecular target: Peroxisome proliferator-activated receptor gamma (Homo sapiens)
Test: Agonist activity at human GAL4-PPARgamma ligand binding domain expressed in human HepG2 cells assessed as maximum fold induction by luciferase reporter gene assay relative to rosiglitazone
Assay type: cell-based

compound	Emax
O=C(/C=C/c1ccccc1)NC(Cc1ccc(OCCOc2ccc(/C=C/c3ccccc3)cc2)cc1)C(=O)O (stereo unspecified)	45%
C/C(=C\C(=O)c1ccccc1)NC(Cc1ccc(OCCCOc2ccc(/N=N/c3ccccc3)cc2)cc1)C(=O)O (stereo unspecified)	31%
C/C(=C\C(=O)c1ccccc1)NC(Cc1ccc(OCCCOc2ccc(/N=N/c3ccc(Cl)cc3)cc2)cc1)C(=O)O (stereo unspecified)	59%
C/C(=C\C(=O)c1ccccc1)NC(Cc1ccc(OCCOc2ccc(/N=N/c3ccc(Cl)cc3)cc2)cc1)C(=O)O (stereo unspecified)	52%
C/C(=C\C(=O)c1ccccc1)NC(Cc1ccc(OCCOc2ccc(/C=C/c3ccc(Cl)cc3)cc2)cc1)C(=O)O (stereo unspecified)	50%

Identify measured Emax associated with C/C(=C\C(=O)c1ccccc1)NC(Cc1ccc(OCCOc2ccc(/C=C/c3ccccc3)cc2)cc1)C(=O)O (stereo unspecified)
75%

Identify measured Emax associated with C/C(=C\C(=O)c1ccccc1)NC(Cc1ccc(OCCCOc2ccc(/C=C/c3ccc(Cl)cc3)cc2)cc1)C(=O)O (stereo unspecified)
56%

Identify measured Emax associated with COc1ccc(/N=N/c2ccc(OCCCOc3ccc(CC(N/C(C)=C/C(=O)c4ccccc4)C(=O)O)cc3)cc2)cc1 (stereo unspecified)
24%

Identify measured Emax associated with C/C(=C\C(=O)c1ccccc1)NC(Cc1ccc(OCCOc2ccc(/C=C/c3ccc(C(F)(F)F)cc3)cc2)cc1)C(=O)O (stereo unspecified)
69%

Identify measured Emax associated with C/C(=C\C(=O)c1ccccc1)NC(Cc1ccc(OCCCOc2ccc(/N=N/c3ccc([N+](=O)[O-])cc3)cc2)cc1)C(=O)O (stereo unspecified)
54%

Identify measured Emax associated with C/C(=C\C(=O)c1ccccc1)NC(Cc1ccc(OCCOc2ccc(/N=N/c3ccccc3)cc2)cc1)C(=O)O (stereo unspecified)
54%

Identify measured Emax associated with C/C(=C\C(=O)c1ccccc1)NC(Cc1ccc(OCCCOc2ccc(/C=C/c3ccc(C(F)(F)F)cc3)cc2)cc1)C(=O)O (stereo unspecified)
46%

----------
Biological target: Peroxisome proliferator-activated receptor alpha (Homo sapiens)
Assay: Agonist activity at human GAL4-PPARalpha ligand binding domain expressed in human HepG2 cells assessed as maximum fold induction by luciferase reporter gene assay relative to Wy-14643
Assay type: cell-based
measured-quantity: Emax

For orientation, consider the following solved cases.
compound	Emax
C/C(=C\C(=O)c1ccccc1)NC(Cc1ccc(OCCCOc2ccc(/C=C/c3ccccc3)cc2)cc1)C(=O)O (centres undefined)	9%
C/C(=C\C(=O)c1ccccc1)NC(Cc1ccc(OCCOc2ccc(/C=C/c3ccccc3)cc2)cc1)C(=O)O (centres undefined)	20%

Now let's try a different one.
Identify measured Emax associated with C/C(=C\C(=O)c1ccccc1)NC(Cc1ccc(OCCCOc2ccc(/N=N/c3ccccc3)cc2)cc1)C(=O)O (centres undefined)
8%

----------
Target: Peroxisome proliferator-activated receptor gamma (Homo sapiens)
Sequence (P37231 whole entry): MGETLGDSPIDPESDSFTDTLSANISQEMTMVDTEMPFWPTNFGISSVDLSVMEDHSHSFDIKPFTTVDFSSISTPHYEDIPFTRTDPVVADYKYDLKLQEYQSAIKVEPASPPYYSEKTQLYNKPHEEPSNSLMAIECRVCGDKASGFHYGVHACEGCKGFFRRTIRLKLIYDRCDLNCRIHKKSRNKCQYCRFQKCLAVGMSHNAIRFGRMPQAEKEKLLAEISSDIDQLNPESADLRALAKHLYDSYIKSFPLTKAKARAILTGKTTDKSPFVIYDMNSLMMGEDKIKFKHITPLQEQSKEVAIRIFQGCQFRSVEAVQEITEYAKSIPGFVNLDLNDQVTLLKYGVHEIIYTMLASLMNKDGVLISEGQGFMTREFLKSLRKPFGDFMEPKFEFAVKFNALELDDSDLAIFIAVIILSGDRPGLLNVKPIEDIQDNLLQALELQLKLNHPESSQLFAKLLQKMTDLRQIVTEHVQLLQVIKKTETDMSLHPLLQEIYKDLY
Assay: Agonist activity at human GAL4-PPARgamma ligand binding domain expressed in human HepG2 cells by luciferase reporter gene assay
Assay type: cell-based
Conditions: read-out: EC50
measured-quantity: pEC50
Convention used: pEC50 is expressed as -log10 of the molar concentration.

compound	pEC50
CC(=O)/C=C(\C)NC(Cc1ccc(OCCOc2ccc(/C=C/c3ccccc3)cc2)cc1)C(=O)O (centres undefined)	6.60
C/C(=C\C(=O)c1ccccc1)NC(Cc1ccc(OCCCOc2ccc(/N=N/c3ccc(Cl)cc3)cc2)cc1)C(=O)O (centres undefined)	7.33
C/C(=C\C(=O)c1ccccc1)NC(Cc1ccc(OCCOc2ccc(/C=C/c3ccc(C(F)(F)F)cc3)cc2)cc1)C(=O)O (centres undefined)	7.08
C/C(=C\C(=O)c1ccccc1)NC(Cc1ccc(OCCCOc2ccc(/N=N/c3ccccc3)cc2)cc1)C(=O)O (centres undefined)	5.86
C/C(=C\C(=O)c1ccccc1)NC(Cc1ccc(OCCCOc2ccc(/C=C/c3ccc(Cl)cc3)cc2)cc1)C(=O)O (centres undefined)	7.92

Identify measured pEC50 associated with C/C(=C\C(=O)c1ccccc1)NC(Cc1ccc(OCCOc2ccc(/C=C/c3ccc(Cl)cc3)cc2)cc1)C(=O)O (centres undefined)
7.59

Identify measured pEC50 associated with C/C(=C\C(=O)c1ccccc1)NC(Cc1ccc(OCCCOc2ccc(/C=C/c3ccc(C(F)(F)F)cc3)cc2)cc1)C(=O)O (centres undefined)
7.49

Identify measured pEC50 associated with C/C(=C\C(=O)c1ccccc1)NC(Cc1ccc(OCCOc2ccc(/C=C/c3ccc(C)cc3)cc2)cc1)C(=O)O (centres undefined)
7.68

Identify measured pEC50 associated with C/C(=C\C(=O)c1ccccc1)NC(Cc1ccc(OCCOc2ccc(/N=N/c3ccc(Cl)cc3)cc2)cc1)C(=O)O (centres undefined)
7.41

Identify measured pEC50 associated with O=C(/C=C/c1ccccc1)NC(Cc1ccc(OCCOc2ccc(/C=C/c3ccccc3)cc2)cc1)C(=O)O (centres undefined)
6.19

Identify measured pEC50 associated with C/C(=C\C(=O)c1ccccc1)NC(Cc1ccc(OCCCOc2ccc(/N=N/c3ccc([N+](=O)[O-])cc3)cc2)cc1)C(=O)O (centres undefined)
7.54

Identify measured pEC50 associated with C/C(=C\C(=O)c1ccccc1)NC(Cc1ccc(OCCOc2ccc(/C=C/c3ccccc3)cc2)cc1)C(=O)O (centres undefined)
7.92

Identify measured pEC50 associated with C/C(=C\C(=O)c1ccccc1)NC(Cc1ccc(OCCOc2ccc(/N=N/c3ccccc3)cc2)cc1)C(=O)O (centres undefined)
6.74

Identify measured pEC50 associated with C/C(=C\C(=O)c1ccccc1)NC(Cc1ccc(OCCCOc2ccc(/C=C/c3ccccc3)cc2)cc1)C(=O)O (centres undefined)
7.33

----------
Biological target: Peroxisome proliferator-activated receptor gamma (Homo sapiens) (UniProt P37231)
Test: Agonist activity at human GAL4-PPARgamma ligand binding domain expressed in human HepG2 cells assessed as maximum fold induction by luciferase reporter gene assay relative to rosiglitazone
Assay type: cell-based
Each record here notes measured Emax.

molecule	Emax
C/C(=C\C(=O)c1ccccc1)NC(Cc1ccc(OCCOc2ccc(/C=C/c3ccc(C)cc3)cc2)cc1)C(=O)O (centres undefined)	77%
C/C(=C\C(=O)c1ccccc1)NC(Cc1ccc(OCCCOc2ccc(/C=C/c3ccccc3)cc2)cc1)C(=O)O (centres undefined)	65%

Now let's try a different one.
Identify measured Emax associated with CC(=O)/C=C(\C)NC(Cc1ccc(OCCOc2ccc(/C=C/c3ccccc3)cc2)cc1)C(=O)O (centres undefined)
61%
